- Measured on: recombinant human KLK5 (human) (UniProt Q9Y337)
- Sequence (Q9Y337 67-293): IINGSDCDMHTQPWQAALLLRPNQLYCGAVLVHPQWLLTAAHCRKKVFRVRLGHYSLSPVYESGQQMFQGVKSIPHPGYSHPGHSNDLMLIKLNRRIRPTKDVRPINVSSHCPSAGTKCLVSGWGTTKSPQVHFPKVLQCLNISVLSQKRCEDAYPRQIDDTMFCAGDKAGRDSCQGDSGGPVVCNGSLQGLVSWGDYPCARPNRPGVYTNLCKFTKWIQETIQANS
- Assay explanation: array SPR imaging (IBIS MX96), antibody amine-coupled, human KLK5 injected 0-300 nM, 25 C
Please go through the items and note down their koff.
Answers are plain numbers, in s⁻¹.

[in] Could you share which koff value was measured for 8E11 (antibody, V domains shown) VH: QEQLEESGGDLVKPEGSLTLTCTASGFSFSSSYWICWVRQAPGKGLEWIACVYGLDVNIYYASWTKGRFTISKTSSTTVTLQMTSLTAADTATYFCARGGGSADFGFDLWGPGTLVTVSS VL: DVVMTQTASPVSAAVGGTVTIKCQASENIYSLLAWYQQKPGQPPKVLIYDASDLASGVPSRFKGSGSGTQFTLTISDLECADAATYYCQATAYGSSGNAFGGGTEVVVK ?
[out] 0.000202

Turning now to a further binder:
[in] Could you share which koff value was measured for 14C8 (antibody, V domains shown) VH: EVQLVESGGGLVQPGRSLKLSCTASGFTFSDYNMAWVRQAPKGGLEWVTTISYDAGRTYYRDSVKGRFTISRDNAKRTLSLQMDSLRSEDTATYYCATGIFNYGTDYFDYWGQGVMVTVSS VL: DIQMTQSPASLSASLGETVTIQCRASEDIYSGLAWYQQKPGKSPQLLIYGATTLHDGVPSRFSGSGSGTQYSLKISSMHSEDEGIYFCHQGLSFPYTFGAGTKLELK ?
[out] 0.000376
